Each recorded value in this set is attributed to patent US4748240A.

# Target Or System: D-2 dopamine receptor (Rattus norvegicus)
# Construct: from tissue; host or cells: homogenized limbic brain tissue
# Protocol: [^3 H] Spiroperidol binding inhibition (D-2 dopamine receptor, homogenized limbic brain tissue)
# Test Conditions: 1 μM
Measurement Kind: inhibition at 1 µM (%)
// return numeric value only (unit: %, not printed)

Problem: So what's the measured inhibition at 1 µM for this one? `O=C1C2CCCC(O2)C(=O)N1CCCCN1CCN(c2cncc(Cl)n2)CC1`
Solution: 21

Problem: I would be grateful if you could share the reported inhibition at 1 µM for `O=C1C2CCCC(C2)C(=O)N1CCCCN1CCN(c2cnccn2)CC1` .
Solution: 12

Problem: Given `O=C1C2CCC(O2)C(=O)N1CCCCN1CCN(c2ncccn2)CC1` , state its recorded inhibition at 1 µM.
Solution: 44

Problem: State the recorded inhibition at 1 µM for this entry: `O=C1C2CCCC(S2)C(=O)N1CCCCN1CCN(c2ncccn2)CC1`
Solution: 27

Problem: Any idea what its inhibition at 1 µM is? The compound is `O=C1C2CC=CCC(C2)C(=O)N1CCCCN1CCN(c2ncccn2)CC1`
Solution: 63

Problem: May I ask what inhibition at 1 µM has been recorded for `CC1(C)C2CCC1C(=O)N(CCCCN1CCN(c3ncccn3)CC1)C2=O` ?
Solution: 53

Problem: Tell me the measured inhibition at 1 µM of O=C1C2CCCC(C(=O)N1CCCCN1CCN(c3ncccn3)CC1)[S+]2[O-] (stereo not shown) , please.
Solution: 14

Problem: Give the measured inhibition at 1 µM of `O=C1C2CCCC(O2)C(=O)N1CCCCN1CCN(c2ncccn2)CC1` .
Solution: 17

Problem: Name the reported inhibition at 1 µM value associated with the compound `O=C1C2CCCC(C2)C(=O)N1CCCCN1CCN(c2cncc(Cl)n2)CC1`
Solution: 21

Problem: Quick one: inhibition at 1 µM for `O=C1C2CCCC(S2)C(=O)N1CCCCN1CCN(c2cncc(Cl)n2)CC1` ?
Solution: 34

----------
# Target Or System: 5-HT1A serotonin receptor (Rattus norvegicus, UniProt P19327)
# Construct: from tissue
# Sequence (P19327 whole entry): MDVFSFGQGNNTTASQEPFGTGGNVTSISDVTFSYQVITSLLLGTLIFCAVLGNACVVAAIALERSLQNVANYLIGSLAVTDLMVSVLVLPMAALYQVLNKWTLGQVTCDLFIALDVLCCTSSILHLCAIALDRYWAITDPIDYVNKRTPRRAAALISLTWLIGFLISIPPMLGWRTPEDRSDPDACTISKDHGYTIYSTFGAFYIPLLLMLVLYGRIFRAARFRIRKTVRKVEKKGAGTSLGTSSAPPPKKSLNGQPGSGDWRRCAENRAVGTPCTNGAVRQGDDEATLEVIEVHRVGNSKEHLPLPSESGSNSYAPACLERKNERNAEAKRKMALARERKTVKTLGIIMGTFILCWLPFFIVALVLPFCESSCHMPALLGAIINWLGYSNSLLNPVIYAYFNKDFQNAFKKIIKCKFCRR
# Protocol: Inhibition of [^3 H] 8-OH DPAT binding
Measurement Kind: inhibition at 1 µM (%)
Enter your answer as a number in %; do not include the unit.

Problem: inhibition at 1 µM for `O=C1C2CCCC(O2)C(=O)N1CCCCN1CCN(c2cncc(Cl)n2)CC1` ?
Solution: 63

Problem: inhibition at 1 µM for `CC1(C)C2CCC1C(=O)N(CCCCN1CCN(c3cncc(Cl)n3)CC1)C2=O` ?
Solution: 76

Problem: Name the recorded inhibition at 1 µM for `O=C1C2CCC(O2)C(=O)N1CCCCN1CCN(c2cncc(Cl)n2)CC1` .
Solution: 54

Problem: Need inhibition at 1 µM, item `O=C1C2CCC(C2)C(=O)N1CCCCN1CCN(c2cncc(Cl)n2)CC1`
Solution: 68

----------
Assign inhibition at 1 µM to each entry below.
# Target Or System: D-2 dopamine receptor (Rattus norvegicus, UniProt P61169)
# Construct: from tissue; host or cells: homogenized limbic brain tissue
# Sequence (P61169 whole entry): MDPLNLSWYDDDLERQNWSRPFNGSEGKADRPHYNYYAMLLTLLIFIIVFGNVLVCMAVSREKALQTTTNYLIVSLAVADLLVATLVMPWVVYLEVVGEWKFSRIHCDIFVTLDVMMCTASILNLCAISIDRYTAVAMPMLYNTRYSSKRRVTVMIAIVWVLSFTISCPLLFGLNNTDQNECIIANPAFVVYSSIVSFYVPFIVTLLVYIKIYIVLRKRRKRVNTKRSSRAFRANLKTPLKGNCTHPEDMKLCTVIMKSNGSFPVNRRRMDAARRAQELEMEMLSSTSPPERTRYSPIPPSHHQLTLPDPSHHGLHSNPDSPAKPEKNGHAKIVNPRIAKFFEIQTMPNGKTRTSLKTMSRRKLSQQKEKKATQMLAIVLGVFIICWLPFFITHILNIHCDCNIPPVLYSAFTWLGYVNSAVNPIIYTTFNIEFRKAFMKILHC
# Protocol: [^3 H] Spiroperidol binding inhibition (D-2 dopamine receptor, homogenized limbic brain tissue)
# Test Conditions: 1 μM
Write it as a number; the unit % goes unstated.

Problem: Which inhibition at 1 µM value belongs to O=C1C2CCC(C2)C(=O)N1CCCN1CCN(c2cccc(C(F)(F)F)c2)CC1 [Example 22] ?
Solution: 38

Problem: Record request: inhibition at 1 µM value, item O=C1C2CCC(C2)C(=O)N1CCCCN1CCN(c2ccc3ccccc3n2)CC1 [Example 9]
Solution: 31

Problem: Look at this molecule and give its reported inhibition at 1 µM. O=C1C2CCC(C2)C(=O)N1CCCCN1CCN(c2cncc(Cl)n2)CC1 [Example 8]
Solution: 12

Problem: Record request: inhibition at 1 µM value, item O=C1C2CCCC(O2)C(=O)N1CCCCN1CCN(c2cccc(C(F)(F)F)c2)CC1 [Example 19]
Solution: 97

Problem: Would you kindly share the measured inhibition at 1 µM for O=C1C2CCC(O2)C(=O)N1CCCCN1CCN(c2cncc(Cl)n2)CC1 [Example 12] ?
Solution: 7

Problem: Look up inhibition at 1 µM: COc1ccccc1N1CCN(CCCCN2C(=O)C3CCC(C3)C2=O)CC1 [Example 17]
Solution: 0

Problem: What inhibition at 1 µM value was documented for this molecule, CC1(C)C2CCC1C(=O)N(CCCCN1CCN(c3cncc(Cl)n3)CC1)C2=O [Example 18] ?
Solution: 21

Problem: Value lookup for inhibition at 1 µM; key = O=C1C2CCCC(C2)C(=O)N1CCCCN1CCN(c2ncccn2)CC1 [Example 1]
Solution: 38

Problem: Would you mind telling me what inhibition at 1 µM value was observed for O=C1C2CCC(S2)C(=O)N1CCCCN1CCN(c2ncccn2)CC1 [Example 4] ?
Solution: 12
